biological target: DDR2 (Homo sapiens, UniProt Q16832); construct: lines 1-140) and Reaction Biology; assay: Dundee kinase panel; assay type: biochemical; settings: read-out: residual activity
Sequence (Q16832 22-855): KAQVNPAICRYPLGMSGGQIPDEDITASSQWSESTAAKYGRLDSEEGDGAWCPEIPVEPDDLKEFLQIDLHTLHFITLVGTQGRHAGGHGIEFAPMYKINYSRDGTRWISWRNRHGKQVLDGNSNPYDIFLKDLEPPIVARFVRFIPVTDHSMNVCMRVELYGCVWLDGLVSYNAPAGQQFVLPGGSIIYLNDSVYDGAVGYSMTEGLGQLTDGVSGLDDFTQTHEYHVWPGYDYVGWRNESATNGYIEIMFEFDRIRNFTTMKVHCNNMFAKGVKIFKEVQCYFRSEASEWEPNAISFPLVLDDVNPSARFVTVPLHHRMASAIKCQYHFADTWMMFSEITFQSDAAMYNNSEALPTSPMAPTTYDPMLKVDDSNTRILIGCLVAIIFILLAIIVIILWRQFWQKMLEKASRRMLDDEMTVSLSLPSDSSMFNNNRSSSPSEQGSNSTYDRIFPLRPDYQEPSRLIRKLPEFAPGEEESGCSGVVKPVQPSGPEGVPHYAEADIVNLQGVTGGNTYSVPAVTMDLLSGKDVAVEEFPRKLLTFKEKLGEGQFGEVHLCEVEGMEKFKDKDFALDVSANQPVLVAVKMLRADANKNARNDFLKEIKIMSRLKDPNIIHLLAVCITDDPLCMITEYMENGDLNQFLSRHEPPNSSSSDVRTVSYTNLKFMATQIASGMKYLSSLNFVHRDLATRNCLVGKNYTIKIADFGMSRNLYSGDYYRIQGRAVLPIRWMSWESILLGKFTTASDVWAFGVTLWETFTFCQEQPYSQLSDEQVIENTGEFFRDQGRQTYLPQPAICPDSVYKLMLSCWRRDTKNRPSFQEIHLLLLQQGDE
Reported Endpoint: remaining activity at 1 µM (%)
# number only, unit % dropped from output

Entry COCCOc1ccc(-c2cn(-c3ccccc3)c3nc[nH]c(=O)c23)cc1 has what remaining activity at 1 µM?
80

Entry O=C1Nc2ccc(I)cc2/C1=C/c1cc(Br)c(O)c(Br)c1 has what remaining activity at 1 µM?
62

Entry O=C1Cc2c([nH]c3ccc(Br)cc23)-c2ccccc2N1 has what remaining activity at 1 µM?
88

Entry Oc1ncnc2c1c(-c1ccccc1)cn2-c1ccccc1 has what remaining activity at 1 µM?
88

* * *

Provide the reported remaining activity at 1 µM of each item.
target: PKCa (Homo sapiens, UniProt P17252); construct: lines 1-140) and Reaction Biology; experiment: Dundee kinase panel; assay type: biochemical; conditions: read-out: residual activity
# number only, unit % dropped from output

Entry O=C1Nc2ccc(I)cc2/C1=C/c1cc(Br)c(O)c(Br)c1 has what remaining activity at 1 µM?
85

Entry O=C1Cc2c([nH]c3ccc(Br)cc23)-c2ccccc2N1 has what remaining activity at 1 µM?
94

Entry Oc1ncnc2c1c(-c1ccccc1)cn2-c1ccccc1 has what remaining activity at 1 µM?
70

Entry COCCOc1ccc(-c2cn(-c3ccccc3)c3nc[nH]c(=O)c23)cc1 has what remaining activity at 1 µM?
116

* * *

target: CDK2-Cyclin A (Homo sapiens, UniProt P24941); construct: lines 1-140) and Reaction Biology; assay: Dundee kinase panel; type: biochemical; conditions: read-out: residual activity
Reported Endpoint: remaining activity at 1 µM (%)
# number only, unit % dropped from output

Entry O=C1Cc2c([nH]c3ccc(Br)cc23)-c2ccccc2N1 [Kenpaullone] has what remaining activity at 1 µM?
93

Entry Oc1ncnc2c1c(-c1ccccc1)cn2-c1ccccc1 [F1386-0303] has what remaining activity at 1 µM?
84

Entry COCCOc1ccc(-c2cn(-c3ccccc3)c3nc[nH]c(=O)c23)cc1 [DMX-5804] has what remaining activity at 1 µM?
104

Entry O=C1Nc2ccc(I)cc2/C1=C/c1cc(Br)c(O)c(Br)c1 [GW5074] has what remaining activity at 1 µM?
111

* * *

Provide the reported IC50 of each item.
molecular target: TNIK/MAP4K7 (Homo sapiens); experiment: HTRF Transcreener ADP kinase assay
Sequence (Q9UKE5 whole entry): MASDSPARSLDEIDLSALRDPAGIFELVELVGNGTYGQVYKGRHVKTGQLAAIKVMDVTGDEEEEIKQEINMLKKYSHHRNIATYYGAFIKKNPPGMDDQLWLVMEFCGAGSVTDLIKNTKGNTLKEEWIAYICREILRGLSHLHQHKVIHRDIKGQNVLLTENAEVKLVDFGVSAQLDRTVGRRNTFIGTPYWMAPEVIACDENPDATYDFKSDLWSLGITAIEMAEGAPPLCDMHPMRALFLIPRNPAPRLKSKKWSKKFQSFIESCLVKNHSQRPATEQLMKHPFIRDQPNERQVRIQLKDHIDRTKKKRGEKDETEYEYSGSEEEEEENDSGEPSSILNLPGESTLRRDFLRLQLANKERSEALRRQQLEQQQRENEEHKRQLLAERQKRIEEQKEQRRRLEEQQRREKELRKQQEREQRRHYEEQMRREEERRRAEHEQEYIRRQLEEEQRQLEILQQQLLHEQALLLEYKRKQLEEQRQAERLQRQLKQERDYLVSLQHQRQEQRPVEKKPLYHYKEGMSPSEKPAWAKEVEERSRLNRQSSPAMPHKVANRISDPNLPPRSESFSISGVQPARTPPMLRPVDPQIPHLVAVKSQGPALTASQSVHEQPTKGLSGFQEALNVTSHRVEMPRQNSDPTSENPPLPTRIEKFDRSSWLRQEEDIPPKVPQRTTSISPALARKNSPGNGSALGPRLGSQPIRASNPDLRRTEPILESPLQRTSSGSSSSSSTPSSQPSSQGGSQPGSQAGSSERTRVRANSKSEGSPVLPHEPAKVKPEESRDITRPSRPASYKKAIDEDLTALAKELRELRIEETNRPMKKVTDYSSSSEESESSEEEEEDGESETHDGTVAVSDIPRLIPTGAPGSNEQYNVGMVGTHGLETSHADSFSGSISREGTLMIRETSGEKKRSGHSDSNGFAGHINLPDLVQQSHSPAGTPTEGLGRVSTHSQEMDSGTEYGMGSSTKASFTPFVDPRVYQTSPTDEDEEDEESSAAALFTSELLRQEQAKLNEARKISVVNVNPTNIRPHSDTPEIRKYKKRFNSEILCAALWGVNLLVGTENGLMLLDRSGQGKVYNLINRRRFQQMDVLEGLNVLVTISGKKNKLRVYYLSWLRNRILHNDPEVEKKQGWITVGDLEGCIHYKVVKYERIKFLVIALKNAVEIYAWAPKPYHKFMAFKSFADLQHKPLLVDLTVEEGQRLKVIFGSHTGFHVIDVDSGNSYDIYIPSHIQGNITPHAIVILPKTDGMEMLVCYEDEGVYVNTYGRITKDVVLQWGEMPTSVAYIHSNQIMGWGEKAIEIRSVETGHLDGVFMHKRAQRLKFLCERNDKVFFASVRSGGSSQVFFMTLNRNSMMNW
# number only, unit nM dropped from output

Form field - read-out: IC50; system: TNIK/MAP4K7 (Homo sapiens); submitted item: Oc1ncnc2c1c(-c1ccccc1)cn2-c1ccccc1 [F1386-0303]
93.3

Form field - read-out: IC50; system: TNIK/MAP4K7 (Homo sapiens); submitted item: COCCOc1ccc(-c2cn(-c3ccccc3)c3nc[nH]c(=O)c23)cc1 [DMX-5804]
11

* * *

Provide the reported Tmax of each item.
assay: Oral PK; format: in vivo, female CD-1 mice; details: female, CD-1, mouse; Oral PK (50 mg kg^−1); mice; plasma
Just the number plus its unit, please.

Entry Oc1ncnc2c1c(-c1ccccc1)cn2-c1ccccc1 [F1386-0303] has what Tmax?
1 h

Entry COCCOc1ccc(-c2cn(-c3ccccc3)c3nc[nH]c(=O)c23)cc1 [DMX-5804] has what Tmax?
1 h

* * *

Provide the reported remaining activity at 1 µM of each item.
molecular target: ERK1 (Homo sapiens); construct: lines 1-140) and Reaction Biology; experiment: Dundee kinase panel; type: biochemical; conditions: read-out: residual activity
Sequence (P27361 whole entry): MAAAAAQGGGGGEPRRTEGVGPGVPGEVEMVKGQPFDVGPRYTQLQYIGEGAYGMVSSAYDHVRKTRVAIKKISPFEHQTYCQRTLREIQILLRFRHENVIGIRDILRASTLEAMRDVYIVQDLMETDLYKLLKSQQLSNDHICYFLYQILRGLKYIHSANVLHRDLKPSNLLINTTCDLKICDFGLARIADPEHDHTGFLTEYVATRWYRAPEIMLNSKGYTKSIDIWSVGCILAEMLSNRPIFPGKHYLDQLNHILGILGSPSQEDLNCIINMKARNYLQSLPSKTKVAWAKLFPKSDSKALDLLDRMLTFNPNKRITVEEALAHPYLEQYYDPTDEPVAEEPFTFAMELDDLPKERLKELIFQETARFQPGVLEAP
# number only, unit % dropped from output

Entry O=C1Nc2ccc(I)cc2/C1=C/c1cc(Br)c(O)c(Br)c1 [GW5074] has what remaining activity at 1 µM?
87

Entry Oc1ncnc2c1c(-c1ccccc1)cn2-c1ccccc1 [F1386-0303] has what remaining activity at 1 µM?
124

Entry COCCOc1ccc(-c2cn(-c3ccccc3)c3nc[nH]c(=O)c23)cc1 [DMX-5804] has what remaining activity at 1 µM?
107

Entry O=C1Cc2c([nH]c3ccc(Br)cc23)-c2ccccc2N1 [Kenpaullone] has what remaining activity at 1 µM?
78

* * *

Target: GCK (Homo sapiens, UniProt Q12851)
Construct: lines 1-140) and Reaction Biology
Sequence (Q12851 1-820): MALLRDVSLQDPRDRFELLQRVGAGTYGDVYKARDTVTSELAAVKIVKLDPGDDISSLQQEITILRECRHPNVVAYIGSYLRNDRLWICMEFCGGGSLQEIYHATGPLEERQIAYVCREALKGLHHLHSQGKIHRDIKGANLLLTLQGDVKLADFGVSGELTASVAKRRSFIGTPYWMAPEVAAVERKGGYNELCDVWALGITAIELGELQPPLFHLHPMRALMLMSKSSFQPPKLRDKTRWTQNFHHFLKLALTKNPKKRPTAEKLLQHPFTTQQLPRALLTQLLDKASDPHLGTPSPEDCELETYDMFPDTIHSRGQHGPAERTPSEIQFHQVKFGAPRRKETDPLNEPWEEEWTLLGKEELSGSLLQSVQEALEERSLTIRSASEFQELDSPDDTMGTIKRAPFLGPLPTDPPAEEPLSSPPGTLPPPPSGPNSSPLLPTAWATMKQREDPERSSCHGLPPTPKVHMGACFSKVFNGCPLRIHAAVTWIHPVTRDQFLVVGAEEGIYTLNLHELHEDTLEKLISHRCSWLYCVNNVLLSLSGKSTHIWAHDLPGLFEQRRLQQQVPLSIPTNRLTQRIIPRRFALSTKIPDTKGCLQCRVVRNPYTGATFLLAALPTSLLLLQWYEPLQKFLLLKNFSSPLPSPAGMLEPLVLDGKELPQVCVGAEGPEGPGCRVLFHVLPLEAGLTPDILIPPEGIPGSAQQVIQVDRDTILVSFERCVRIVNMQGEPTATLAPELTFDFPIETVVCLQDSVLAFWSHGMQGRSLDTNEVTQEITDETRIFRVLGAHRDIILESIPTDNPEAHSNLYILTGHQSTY
Assay: Dundee kinase panel
Format: biochemical
Conditions: read-out: residual activity
Procedure: Compounds were screened at 1 μM. For key hits, pIC50 values were then determined by HTRF as above. […] Stability in mouse and human liver microsomes was determined by Cyprotex.
Reported Endpoint: remaining activity at 1 µM (%)
# number only, unit % dropped from output

Entry Oc1ncnc2c1c(-c1ccccc1)cn2-c1ccccc1 [F1386-0303] has what remaining activity at 1 µM?
39

Entry O=C1Nc2ccc(I)cc2/C1=C/c1cc(Br)c(O)c(Br)c1 [GW5074] has what remaining activity at 1 µM?
60

Entry COCCOc1ccc(-c2cn(-c3ccccc3)c3nc[nH]c(=O)c23)cc1 [DMX-5804] has what remaining activity at 1 µM?
36

Entry O=C1Cc2c([nH]c3ccc(Br)cc23)-c2ccccc2N1 [Kenpaullone] has what remaining activity at 1 µM?
95

* * *

molecular target: MST2 (Homo sapiens); construct: lines 1-140) and Reaction Biology; experiment: Dundee kinase panel; assay type: biochemical; details: read-out: residual activity
Sequence (Q13188 whole entry): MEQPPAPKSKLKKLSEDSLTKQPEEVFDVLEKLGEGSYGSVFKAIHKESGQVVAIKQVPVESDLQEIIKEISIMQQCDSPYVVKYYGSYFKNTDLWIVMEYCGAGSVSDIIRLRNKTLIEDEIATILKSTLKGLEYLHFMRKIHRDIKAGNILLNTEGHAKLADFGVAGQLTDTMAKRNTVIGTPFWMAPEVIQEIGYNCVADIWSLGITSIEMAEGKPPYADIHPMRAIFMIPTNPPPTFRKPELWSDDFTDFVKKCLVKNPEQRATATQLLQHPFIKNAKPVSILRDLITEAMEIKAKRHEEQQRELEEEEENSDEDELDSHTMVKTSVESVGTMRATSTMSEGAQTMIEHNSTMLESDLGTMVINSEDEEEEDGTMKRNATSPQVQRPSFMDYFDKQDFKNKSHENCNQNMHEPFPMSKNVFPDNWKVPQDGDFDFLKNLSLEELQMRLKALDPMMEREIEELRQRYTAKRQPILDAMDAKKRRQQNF
Provide the reported remaining activity at 1 µM of each item.
# number only, unit % dropped from output

Entry O=C1Nc2ccc(I)cc2/C1=C/c1cc(Br)c(O)c(Br)c1 has what remaining activity at 1 µM?
93

Entry Oc1ncnc2c1c(-c1ccccc1)cn2-c1ccccc1 has what remaining activity at 1 µM?
63

Entry O=C1Cc2c([nH]c3ccc(Br)cc23)-c2ccccc2N1 has what remaining activity at 1 µM?
63

Entry COCCOc1ccc(-c2cn(-c3ccccc3)c3nc[nH]c(=O)c23)cc1 has what remaining activity at 1 µM?
46

* * *

Provide the reported remaining activity at 1 µM of each item.
Target: NEK2a (Homo sapiens)
Construct: lines 1-140) and Reaction Biology
Sequence (P51955 1-445): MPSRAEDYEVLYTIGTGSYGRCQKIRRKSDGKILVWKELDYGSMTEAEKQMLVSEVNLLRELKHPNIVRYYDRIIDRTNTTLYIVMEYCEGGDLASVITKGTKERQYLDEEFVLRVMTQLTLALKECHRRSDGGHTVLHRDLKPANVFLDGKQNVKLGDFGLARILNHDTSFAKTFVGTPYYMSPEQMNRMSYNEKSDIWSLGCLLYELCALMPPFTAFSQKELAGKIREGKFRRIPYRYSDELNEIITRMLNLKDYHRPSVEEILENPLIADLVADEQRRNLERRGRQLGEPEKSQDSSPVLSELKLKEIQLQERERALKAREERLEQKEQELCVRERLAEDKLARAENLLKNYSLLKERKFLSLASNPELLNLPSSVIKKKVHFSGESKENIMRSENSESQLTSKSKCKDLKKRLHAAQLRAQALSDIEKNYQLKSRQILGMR
Assay: Dundee kinase panel
Assay type: biochemical
Details: read-out: residual activity
# number only, unit % dropped from output

Form field - read-out: remaining activity at 1 µM; system: NEK2a (Homo sapiens); submitted item: COCCOc1ccc(-c2cn(-c3ccccc3)c3nc[nH]c(=O)c23)cc1
106

Form field - read-out: remaining activity at 1 µM; system: NEK2a (Homo sapiens); submitted item: O=C1Nc2ccc(I)cc2/C1=C/c1cc(Br)c(O)c(Br)c1
8

Form field - read-out: remaining activity at 1 µM; system: NEK2a (Homo sapiens); submitted item: O=C1Cc2c([nH]c3ccc(Br)cc23)-c2ccccc2N1
89

Form field - read-out: remaining activity at 1 µM; system: NEK2a (Homo sapiens); submitted item: Oc1ncnc2c1c(-c1ccccc1)cn2-c1ccccc1
108
